assay.info: Pharmacokinetics after IV administration, brain penetration assessment
Format: in vivo, rat
cond: Sprague-Dawley (SD), rat; IV 7.5 mg/kg, Plasma; read-out: T½
endpoint.name: half-life
Answers without a unit are incomplete; give the number and then its unit.

*Q* // lookup half-life for COc1ccccc1CN(C(=O)CC(C)C)[C@@H](C(=O)NC[C@H]1CCCO1)c1ccc(C)cc1 [Compound 8 (R,R)]
*A* 12.5 min

###

assay.info: Pharmacokinetics after oral gavage
Format: in vivo, rat
cond: Sprague-Dawley, rat, plasma, po, 10 mg/kg, 10 mg/kg oral gavage, Rat 2
endpoint.name: MRT last (h)
Numeric answer only, unit h assumed.

*Q* // lookup MRT last for COc1ccccc1CN(C(=O)CC(C)C)[C@@H](C(=O)NC[C@H]1CCCO1)c1ccc(C)cc1 [Compound 8 (R,R)]
*A* 1.73

###

assay.info: Pharmacokinetics after oral gavage
Assay type: in vivo, rat
cond: Sprague-Dawley (SD), rat, plasma, po, 10 mg/kg, oral administration, 30 min, Rat1; read-out: plasma level
endpoint.name: concentration at 30 min
Answers without a unit are incomplete; give the number and then its unit.

*Q* // lookup concentration at 30 min for COc1ccccc1CN(C(=O)CC(C)C)[C@@H](C(=O)NC[C@H]1CCCO1)c1ccc(C)cc1 [Compound 8 (R,R)]
*A* 1.8 ng/mL

###

assay.info: Pharmacokinetics after oral gavage
Assay type: in vivo, rat
cond: Sprague-Dawley, rat, plasma, po, 10 mg/kg, 10 mg/kg oral gavage, Rat 1; read-out: AUCINF_obs (converted)
endpoint.name: AUC(0-inf)

*Q* // lookup AUC(0-inf) for COc1ccccc1CN(C(=O)CC(C)C)[C@@H](C(=O)NC[C@H]1CCCO1)c1ccc(C)cc1 [Compound 8 (R,R)]
*A* 14.4 ng·h/mL

###

assay.info: Pharmacokinetics after IV administration, brain penetration assessment
Assay type: in vivo, rat
cond: Sprague-Dawley (SD), rat; IV 7.5 mg/kg, Brain
endpoint.name: AUC(0-t) (ng·h/mL)
Numeric answer only, unit ng·h/mL assumed.

*Q* // lookup AUC(0-t) for COc1ccccc1CN(C(=O)CC(C)C)[C@@H](C(=O)NC[C@H]1CCCO1)c1ccc(C)cc1 [Compound 8 (R,R)]
*A* 523

###

assay.info: Pharmacokinetics after IV administration, brain penetration assessment
Type: in vivo, rat
cond: Sprague-Dawley, rat, brain, iv, 7.5 mg/kg, Time 60, R2, read-out: Brain level
endpoint.name: concentration at 60 min (ng/g)
Numeric answer only, unit ng/g assumed.

*Q* // lookup concentration at 60 min for COc1ccccc1CN(C(=O)CC(C)C)[C@@H](C(=O)NC[C@H]1CCCO1)c1ccc(C)cc1 [Compound 8 (R,R)]
*A* 34.6

###

assay.info: Pharmacokinetics after IV administration, brain penetration assessment
Format: in vivo, rat
cond: Sprague-Dawley (SD), rat; IV 7.5 mg/kg, Plasma
endpoint.name: MRT last (min)
Numeric answer only, unit min assumed.

*Q* // lookup MRT last for COc1ccccc1CN(C(=O)CC(C)C)[C@@H](C(=O)NC[C@H]1CCCO1)c1ccc(C)cc1 [Compound 8 (R,R)]
*A* 15.9

###

assay.info: Pharmacokinetics after IV administration, brain penetration assessment
Type: in vivo, rat
cond: Sprague-Dawley, rat; IV 7.5 mg/kg, Plasma
endpoint.name: Cmax
Answers without a unit are incomplete; give the number and then its unit.

*Q* // lookup Cmax for COc1ccccc1CN(C(=O)CC(C)C)[C@@H](C(=O)NC[C@H]1CCCO1)c1ccc(C)cc1 [Compound 8 (R,R)]
*A* 1400 ng/mL
